Target: 5-HT2C receptor (Rattus norvegicus, UniProt P08909)
Sequence (P08909 33-460): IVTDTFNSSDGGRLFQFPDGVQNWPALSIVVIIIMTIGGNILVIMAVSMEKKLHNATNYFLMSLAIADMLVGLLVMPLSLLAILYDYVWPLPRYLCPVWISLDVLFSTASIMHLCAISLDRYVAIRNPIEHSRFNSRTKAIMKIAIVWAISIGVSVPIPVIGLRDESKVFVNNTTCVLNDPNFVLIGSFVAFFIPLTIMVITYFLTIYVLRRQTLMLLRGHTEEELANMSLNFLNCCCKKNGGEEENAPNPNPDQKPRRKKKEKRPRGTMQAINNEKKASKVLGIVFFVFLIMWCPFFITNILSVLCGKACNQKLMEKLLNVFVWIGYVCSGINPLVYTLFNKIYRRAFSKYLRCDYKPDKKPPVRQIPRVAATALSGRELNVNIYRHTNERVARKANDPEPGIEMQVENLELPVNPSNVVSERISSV
Test: [3H]-5-HT binding assay (method a), affinity to the 5-HT2C receptor
Set-up: expressed in transfected cells
Conditions: Ki from IC50 in nM, read-out: Pki (Pki=-log10 Ki), 5-HT2C, Method a (converted)
REPORTED ENDPOINT: Ki

Value of measured Ki for the entry NC(=NO)c1cc2cc(F)c(F)cc2o1 [Example 13, 5,6-Difluorobenzofuran-2-carboxamidoxime] : > 10000 nM

Value of measured Ki for the entry CCOCc1cccc2cc(C(N)=NO)oc12 [Example 17] : > 10000 nM

Value of measured Ki for the entry NC(=NO)c1cc2ccccc2o1 [H H H H CH, benzofuran-2-carboxamidoxime] : > 10000 nM

---

target: 5-HT2A receptor (Homo sapiens, UniProt P28223); construct: expressed in transfected cells; test: [3H]-DOB binding assay (method b), affinity to the 5-HT2A receptor; details: Ki from IC50 in nM, read-out: Pki (Pki=-log10 Ki), 5-HT2A, Method b (converted)
Sequence (P28223 whole entry): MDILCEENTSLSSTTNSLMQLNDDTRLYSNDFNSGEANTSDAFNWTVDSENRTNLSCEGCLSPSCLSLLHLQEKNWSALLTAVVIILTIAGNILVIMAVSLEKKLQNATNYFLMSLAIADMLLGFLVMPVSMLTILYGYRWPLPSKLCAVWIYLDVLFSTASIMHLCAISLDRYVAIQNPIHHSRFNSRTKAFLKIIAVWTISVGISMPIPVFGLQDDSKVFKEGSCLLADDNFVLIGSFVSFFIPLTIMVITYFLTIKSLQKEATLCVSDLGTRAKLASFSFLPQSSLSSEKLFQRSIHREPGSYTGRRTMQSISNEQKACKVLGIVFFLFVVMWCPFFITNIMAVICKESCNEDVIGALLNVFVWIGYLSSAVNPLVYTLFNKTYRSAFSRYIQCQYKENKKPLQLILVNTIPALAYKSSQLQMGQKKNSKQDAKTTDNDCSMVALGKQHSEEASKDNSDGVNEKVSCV
Could you please report measured log10 of Ki for the items listed next?
Kindly note that the scale is log10 and the underlying Ki is in nM.

Value of measured log10 of Ki for the entry N=C(N)c1cc2ccc(Cl)cc2o1 [H Cl H H H] : 3.70

Value of measured log10 of Ki for the entry COCc1cccc2cc(C(=N)N)oc12 [CH2 --O-Me H H H H] : 3.50

Value of measured log10 of Ki for the entry COc1ccc(C)c2cc(C(=N)N)oc12 [OMe H H Me H] : 3.40

Value of measured log10 of Ki for the entry N=C(N)c1cc2cc(F)ccc2o1 [Example 5, 5-Fluorobenzofuran-2-carboxamidine] : 3.30

Value of measured log10 of Ki for the entry N=C(N)c1cc2c(F)cc(F)cc2o1 [Example 10, 4.6-Difluoro-benzofuran-2-carboxamidine] : 2.80

Value of measured log10 of Ki for the entry N=C(N)c1cc2cccc(Cl)c2o1 [Cl H H H H] : 3.60

Value of measured log10 of Ki for the entry N=C(N)c1cc2c(F)cccc2o1 [Example 9, 4-Fluoro-benzofuran-2-carboxamidine] : 3.30

Value of measured log10 of Ki for the entry COc1cc(Br)cc2cc(C(=N)N)oc12 [OMe H Br H H] : 3.40

Value of measured log10 of Ki for the entry N=C(N)c1cc2cccc(OCc3ccccc3)c2o1 [OBn H H H H] : 2.10

Value of measured log10 of Ki for the entry N=C(N)c1cc2cccc(OC3CCCC3)c2o1 [O-Cyclo-pent H H H H] : 2.40

Value of measured log10 of Ki for the entry NC(=NO)c1cc2c(F)cccc2o1 [Example 18, 4-Fluorobenzofuran-2-carboxamidoxime] : 3.40

Value of measured log10 of Ki for the entry N=C(N)c1cc2ccccc2o1 [H H H H H, benzofuran-2-carboxamidine] : 3.70

Value of measured log10 of Ki for the entry CSCc1cccc2cc(C(=N)N)oc12 [CH2 --S-Me H H H H] : 3.00

Value of measured log10 of Ki for the entry Cc1cccc2cc(C(=N)N)oc12 [Me H H H H] : 3.40

Value of measured log10 of Ki for the entry N=C(N)c1cc2cc(Cl)ccc2o1 [H H Cl H H] : 3.20

---

Could you please report measured Ki for the items listed next?
Target: 5-HT2C receptor (Rattus norvegicus, UniProt P08909)
Assay: [3H]-5-HT binding assay (method a), affinity to the 5-HT2C receptor
Design: expressed in transfected cells
Conditions: Ki from IC50 in nM, read-out: Pki (Pki=-log10 Ki), 5-HT2C, Method a (converted)
Experimental: The binding of compounds of formula I in accordance with the invention to selected serotonin […] was determined in vitro by standard methods. The preparations were investigated in accordance with the tests given hereinafter: a) Affinity to the 5-HT2C receptor in accordance with the [3H]-5-HT binding assay according to the method of S.J. Peroutka et al., Brain Research 584, 191-196 (1992). The Pki values (Pki=-log10 Ki) of the test substances are given. […]
Give the value, in units of nM, as a plain number.

Value of measured Ki for the entry `N=C(N)c1cc2cccc(F)c2o1` : 794

Value of measured Ki for the entry `N=C(N)c1cc2cccc(-c3ccccc3)c2o1` : 251

Value of measured Ki for the entry `COc1cc(-c2ccccc2)cc2cc(C(=N)N)oc12` : 1580

Value of measured Ki for the entry `NC(=NO)c1cc2cc(F)ccc2o1` : 4270

Value of measured Ki for the entry `N=C(N)c1cc2cc(Cl)ccc2o1` : 1580

Value of measured Ki for the entry `CC(C)c1cccc2cc(C(=N)N)oc12` : 63.1

---

Molecular target: 5-HT2A receptor (Homo sapiens, UniProt P28223)
Construct: expressed in transfected cells
Test: [3H]-DOB binding assay (method b), affinity to the 5-HT2A receptor
Details: Ki from IC50 in nM, read-out: Pki (Pki=-log10 Ki), 5-HT2A, Method b (converted)
Method: The binding of compounds of formula I in accordance with the invention to selected serotonin […] was determined in vitro by standard methods. The preparations were investigated in accordance with the tests given hereinafter: b) Affinity to the 5-HT2A receptor in accordance with the [3H]- DOB binding assay according to the method of T. Branchek et. al., Molecular Pharmacology 38, 604-609 (1990). The Pki values (Pki=-log10 Ki) of the test substances are given. […]
REPORTED ENDPOINT: Ki

Value of measured Ki for the entry CCOCc1cccc2cc(C(N)=NO)oc12 [Example 17] : > 10000 nM

Value of measured Ki for the entry COc1cccc2cc(C(=N)N)oc12 [Example 3, 7-Methoxybenzofuran-2-carboxamidine] : > 10000 nM

Value of measured Ki for the entry Cc1ccc2cc(C(=N)N)oc2c1 [H Me H H H] : > 10000 nM

Value of measured Ki for the entry CCOc1cccc2cc(C(=N)N)oc12 [Example 4, 7-Ethoxybenzofuran-2-carboxamidine] : > 10000 nM

Value of measured Ki for the entry CCOc1cccc2cc(C(N)=NO)oc12 [Example 14, 7-Ethoxybenzofuran-2-carboxamidoxime] : > 10000 nM

Value of measured Ki for the entry NC(=NO)c1cc2ccccc2o1 [H H H H CH, benzofuran-2-carboxamidoxime] : > 10000 nM

Value of measured Ki for the entry NC(=NO)c1cc2cc(F)c(F)cc2o1 [Example 13, 5,6-Difluorobenzofuran-2-carboxamidoxime] : > 10000 nM

Value of measured Ki for the entry COc1ccc2oc(C(=N)N)cc2c1 [H H OMe H H] : > 10000 nM

Value of measured Ki for the entry NC(=NO)c1cc2cc(F)ccc2o1 [Example 15, 5-Fluorobenzofuran-2-carboxamidoxime] : > 10000 nM

Value of measured Ki for the entry CCOc1cccc2oc(C(=N)N)cc12 [Example 2, 4-Ethoxybenzofuran-2-carboxamidine] : > 10000 nM
